Experiment: Active substance content of solution after 0.2 μm filtration (spectrophotometry)
Format: physicochemical
Details: Experiment C: egg lecithin E 100, acetic acid, titrated to pH 4.6, sterile filtration
Procedure: A derivative of these bisnaphthalimides [drawing 1] was used to investigate the solubility in aqueous formulations as follows: […] 40 mg of Z were dissolved in 10 ml of dichloromethane/methanol (9+1). All the solvent was removed again from the solution in a rotary evaporator under reduced pressure. […] The clear supernatant was filtered through a 0.2 micrometer syringe filter, and the active substance concentration in this solution was determined by spectrophotometry. […]
OUTCOME_MEASURE: solubility
Please make sure the unit comes right after the number.

I have this compound here, O=C1c2cccc3cc([N+](=O)[O-])cc(c23)C(=O)N1CCCCNCCCN1C(=O)c2cccc3cc([N+](=O)[O-])cc(c23)C1=O , and I need its recorded solubility.
4000 µg/mL

---

assay: Active substance content of solution after 0.2 μm filtration (spectrophotometry); format: physicochemical; conditions: egg lecithin e 100 solution; Experiment B (comparative): 1.0 g egg lecithin E 100, titrated to pH 6.8, sterilized by filtration
OUTCOME_MEASURE: solubility (µg/mL)
Write the answer as a number in µg/mL, unit excluded.

I have this compound here, O=C1c2cccc3cc([N+](=O)[O-])cc(c23)C(=O)N1CCCCNCCCN1C(=O)c2cccc3cc([N+](=O)[O-])cc(c23)C1=O , and I need its recorded solubility.
4000
